- test method notes: ATB200-04 trial: population PK exposure matching of adolescents to adults
- Format: in vivo, human
- recorded conditions: human, plasma, po, miglustat, predicted; Adolescents N=8; read-out: AUC0-24, P95
recorded metric: AUC(0-t) (ng·h/mL)
Your answer is read as ng·h/mL, so omit the unit and give the number.

AUC(0-t) for CCCCN1C[C@H](O)[C@@H](O)[C@H](O)[C@H]1CO [miglustat] ? 21800

* * *

- test method notes: ATB200-04 trial: population PK exposure matching of adolescents to adults
- Format: in vivo, human
- recorded conditions: human, plasma, po, 260 mg, adolescent Subject 4; 260 mg; Week 64; 53.3 kg; read-out: individual predicted AUC0-24
recorded metric: AUC(0-t) (ng·h/mL)
Your answer is read as ng·h/mL, so omit the unit and give the number.

AUC(0-t) for CCCCN1C[C@H](O)[C@@H](O)[C@H](O)[C@H]1CO ? 22300
